target: mouse SLO3 (KSper currents in mouse sperm) (Mus musculus)
Construct: sperm were isolated from the corpus epididymis by swim-out; endogenous in cells; host or cells: C57Bl/6 mouse corpus epididymal sperm
Sequence (O54982 1-1121): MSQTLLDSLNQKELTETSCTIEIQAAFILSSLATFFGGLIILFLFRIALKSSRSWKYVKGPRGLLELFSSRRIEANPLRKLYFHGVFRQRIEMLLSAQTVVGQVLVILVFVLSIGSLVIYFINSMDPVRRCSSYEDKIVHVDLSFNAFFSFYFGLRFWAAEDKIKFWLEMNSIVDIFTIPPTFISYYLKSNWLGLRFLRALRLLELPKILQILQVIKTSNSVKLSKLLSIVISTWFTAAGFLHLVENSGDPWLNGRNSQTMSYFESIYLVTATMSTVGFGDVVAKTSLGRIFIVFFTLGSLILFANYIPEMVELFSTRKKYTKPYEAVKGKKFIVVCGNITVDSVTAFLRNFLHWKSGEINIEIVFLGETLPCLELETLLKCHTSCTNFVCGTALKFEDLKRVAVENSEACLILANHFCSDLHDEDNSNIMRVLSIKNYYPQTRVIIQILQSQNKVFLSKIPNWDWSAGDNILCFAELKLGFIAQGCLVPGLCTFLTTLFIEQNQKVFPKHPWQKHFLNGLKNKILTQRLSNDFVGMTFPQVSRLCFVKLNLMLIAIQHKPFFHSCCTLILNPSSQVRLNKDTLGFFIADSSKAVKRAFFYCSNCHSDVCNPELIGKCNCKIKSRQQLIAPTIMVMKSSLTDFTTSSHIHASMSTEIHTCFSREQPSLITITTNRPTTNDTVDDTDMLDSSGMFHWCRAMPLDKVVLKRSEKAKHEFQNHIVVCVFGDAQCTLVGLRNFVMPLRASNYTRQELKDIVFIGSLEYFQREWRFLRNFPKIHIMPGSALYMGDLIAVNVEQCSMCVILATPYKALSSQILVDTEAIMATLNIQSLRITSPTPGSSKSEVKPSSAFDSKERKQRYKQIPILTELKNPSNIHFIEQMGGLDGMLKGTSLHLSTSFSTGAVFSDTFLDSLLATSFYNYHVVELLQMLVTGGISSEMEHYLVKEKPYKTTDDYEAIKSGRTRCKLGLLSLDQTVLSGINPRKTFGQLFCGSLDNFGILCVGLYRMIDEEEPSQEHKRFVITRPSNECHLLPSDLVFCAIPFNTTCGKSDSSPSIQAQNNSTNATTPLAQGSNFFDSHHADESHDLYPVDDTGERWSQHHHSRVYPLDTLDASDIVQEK
Sequence (Q5M8M9 24-314 partner): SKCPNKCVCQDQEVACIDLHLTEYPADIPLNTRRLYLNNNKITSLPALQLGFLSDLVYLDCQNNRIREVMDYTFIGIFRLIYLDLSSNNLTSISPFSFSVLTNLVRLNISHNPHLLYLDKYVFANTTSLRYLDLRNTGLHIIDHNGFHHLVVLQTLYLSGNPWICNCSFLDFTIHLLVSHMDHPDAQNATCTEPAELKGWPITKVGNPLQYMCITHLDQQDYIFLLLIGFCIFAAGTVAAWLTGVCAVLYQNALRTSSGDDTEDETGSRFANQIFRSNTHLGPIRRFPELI
assay-remarks: Whole-cell recording of KSper currents in mouse sperm
Format: cell-based
condition-details: whole-cell recordings from mouse sperm, currents at +100 mV; read-out: mSLO3 IC50 (mouse sperm KSper currents)
quantity-name: IC50 (µM)
All answers are understood in µM, so give the number only.

Recorded IC50 (molecule Cc1cc(Cl)cc2sc(O[C@H]3CCN(C(=O)CCCS(=O)(=O)c4cccc(Br)c4)C[C@H]3F)nc12 [VU6047606] ): 1.47
